Hello, the source for this data is patent US20200347144A1, in case you need it.

The binders listed here are annotated with their average fluorescence intensity.
target: T1, human 4-1BB, full length, on transfected cells (human, UniProt Q07011 24-255); assay: FACS, CHOK1-h4-1BB cells; Ab 0.4 ug/ml
T1 construct: whole, on cells; also called CHOK1-h4-1BB
T1 sequence (Q07011 24-255): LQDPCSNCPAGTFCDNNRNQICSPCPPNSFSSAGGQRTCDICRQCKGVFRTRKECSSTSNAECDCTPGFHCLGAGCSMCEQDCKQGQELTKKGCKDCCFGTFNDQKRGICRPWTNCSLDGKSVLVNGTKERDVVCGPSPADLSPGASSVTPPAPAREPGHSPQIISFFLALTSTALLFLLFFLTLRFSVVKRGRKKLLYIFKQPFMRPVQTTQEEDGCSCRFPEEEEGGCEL

Binder	Readout units	average fluorescence intensity
15G10D4 (antibody, V domains shown) VH: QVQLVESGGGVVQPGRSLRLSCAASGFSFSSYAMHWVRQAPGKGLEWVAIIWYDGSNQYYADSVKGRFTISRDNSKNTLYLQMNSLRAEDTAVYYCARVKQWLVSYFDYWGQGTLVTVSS VL: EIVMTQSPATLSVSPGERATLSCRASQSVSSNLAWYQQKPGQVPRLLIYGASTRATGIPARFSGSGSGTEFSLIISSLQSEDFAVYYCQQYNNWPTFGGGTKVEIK	MFI	492
57B3D10 (antibody, V domains shown, also called 4-1BB fully human antibody 57B3D10) VH: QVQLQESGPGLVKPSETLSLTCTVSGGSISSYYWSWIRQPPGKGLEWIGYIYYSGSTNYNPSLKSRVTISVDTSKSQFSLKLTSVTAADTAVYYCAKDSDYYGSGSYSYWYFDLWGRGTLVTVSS VL: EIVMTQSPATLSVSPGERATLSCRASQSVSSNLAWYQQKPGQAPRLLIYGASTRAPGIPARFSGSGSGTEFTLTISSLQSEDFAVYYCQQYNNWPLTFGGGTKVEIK	MFI	490
118F3A2 (antibody, V domains shown) VH: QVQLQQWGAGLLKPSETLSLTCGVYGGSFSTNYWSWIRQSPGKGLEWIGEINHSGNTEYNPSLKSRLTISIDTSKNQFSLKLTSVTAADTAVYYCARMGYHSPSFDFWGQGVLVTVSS VL: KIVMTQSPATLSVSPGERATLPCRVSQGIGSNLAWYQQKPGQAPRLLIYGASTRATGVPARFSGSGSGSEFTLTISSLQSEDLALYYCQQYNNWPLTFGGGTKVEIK	MFI	508
